test: folding stability dG unfold (combined trypsin and chymotrypsin); higher = more stable
Kindly return y if reported folding stability dG unfold is no lower than 1 kcal/mol; return n if it is lower.

>>> class_name("SGMTIEVEKEIEIYDPEKGVKIGSVKVKVLVPTSYSPEEIPEIAEKEIKKAKEELEKPEPPEVNEDGTLKSA [r9_454_JUSTAS]")
"n"
>>> class_name("SAKKENSVPVTIEIELEFDSIEKAKKAIEKLAAEIEKETGAKIEIKVEIEEKENNYIVKVELTIYLPKESAG [r14_626_TrMRF]")
"y"
>>> class_name("SAGGNNAWVQITIPITIKPVYEPEYDPDNGKPKWEPREMEIPITIWAPFDDPEDAERAADDILKSLGISAGG [r13_35_TrROS]")
"n"
>>> class_name("SANDKHKYEEEYPYRNPNDPGQPMPFKREREVPVQPPPVITIDADELAKELKEQGEIKIPPDGWIAIPFSAG [r14_582_TrROS]")
"y"
>>> class_name("SAGGSAGGMKYLDVVLHPDTGATYSSLEEIKASSSGPFQIKTGDGKWIYLPVEELSSLPTPLASSAGGSAGG [r6_685_JUSTAS]")
"n"
>>> class_name("SAGNWKIEIKVKHRRTPDGYYRVTARIQIWDPKNGKPLREIPIEGPFDSPEQAERRARKKAKEILKALSAGG [r19_255_TrROS]")
"y"
>>> class_name("SAGGSAGGSAGKITIKPEGQDGNGMYYEIRLPDNGKTIQVPFPSPEDADRRAKKILKELFSAGGSAGGSAGG [r11_848_TrROS]")
"n"
>>> class_name("SAGGSTYTVTRTEELPDGTVRAELTVTLDGAPVPATGTTETAPGGRRRVTVTFPSDPSLSLTTPEESAGGSA [r2_376_JUSTAS]")
"n"
>>> class_name("SAGGSAGGSAGGPNPDMKFEIVTIKVPPDEVPKSEPIEDPDGHNFFLHFDGNTYTIWRMDSAGGSAGGSAGG [r7_97_TrROS]")
"n"
>>> class_name("SAGGSAGGSAGGMVEVLPVPDGSTLERDPAGYVTRYDPATGTATTVPLADVELSPGSPELSAGGSAGGSAGG [r7_656_JUSTAS]")
"n"
>>> class_name("SAGGSAPESVKPPVVVVTLVLEFPDGRKLTIPVAHEELAEALEVALALPLALEHDTKLVKVEKANVSAGGSA [r15_140_TrMRF]")
"n"
>>> class_name("SAGGNIQIHYNPDWGVIRITYMFPSPTEAEDFIKKLLPPGYKIEPIEVERNPDGYYQVSIEIRLPKGASAGG [r13_338_TrROS]")
"y"
>>> class_name("SAGGMKTAVLTLEVPGLPKRLVLIAGESEEEYKKLAAEAEKPGYEFLGYTTLEELVERTGLPASLLLSAGGS [r16_438_JUSTAS]")
"n"
>>> class_name("SAGGSAGGALTPTDEVTLTLPDGTVRPGRVEVLPDNVVRVRLEGSEVLLTRDPEGDEVTVERVASAGGSAGG [r6_68_JUSTAS]")
"n"
>>> class_name("SAGMSADIPVDPVTGTLTITVTDAFNPDKSTTTTVPLSELEAELGRPLTLEEVAARVEAAGVATVTVGPSAG [r14_809_JUSTAS]")
"n"
>>> class_name("MTEKKEESLGEKKRITTTKPQEDGNPVVTERIIDPNGTIEKVIVKKSSPNKPTTEELPPFSTSNKEIVEKLS [r1_301_JUSTAS]")
"n"
>>> class_name("SAGGTATLVIPRIYKGSPEEAARAVQEIADALAALGYDVEVDATVYPVGDYLVVTVTVTVTAPPDSPLASAG [r5_217_TrMRF]")
"y"
>>> class_name("SAGGSAGGSAGGDEILELERIPETGELVLRRITPDGEGFRIEEEVVPVGPELAEALPEGSAGGSAGGSAGGS [r10_291_TrMRF]")
"n"
>>> class_name("SAMPEKRFYTYEIPIPPGFKADEPFVGTVTLEEKTLPIKIGSIPDVPPDATVRLTVDLDTAEFRVELLPSAG [r14_554_TrMRF]")
"y"
>>> class_name("SAGGSAGGSAGSVIVTSTTSTLPNGTVVTNETVSDPSNPGVTTKKTSTTYPDGSVTTTESSAGGSAGGSAGG [r11_483_JUSTAS]")
"y"
>>> class_name("SAGGSAGGGAAPRTRVIEVLFPVPPDVTVEEIAERLRALYPDAVLVAEAERLPDGYVRVVVTLRSAGGSAGG [r6_566_TrMRF]")
"y"
>>> class_name("SAGGSEPEPLRVSEITDIKESVLPNGTLKATVTLKLPEKDEEVEIEVEASSEEEIEEAIEEIVKLESAGGSA [r2_248_JUSTAS]")
"n"
>>> class_name("SAGGSAGGSAGSITLPDGLTLTWNPATNTLTITLTAPPPPTTTTTTKPAATTTTTTTTTTSAGGSAGGSAGG [r11_331_TrROS_Hall]")
"y"
>>> class_name("SAGGSAGGSAGGPPPSLPYELDKKVIEKLVKYPEDKLKPVEIKEIETSLFNPLTGTWLDSAGGSAGGSAGGS [r10_248_JUSTAS]")
"n"
>>> class_name("SAGGSAGMVVEVREFEIEPDEDKKIKATLERYETPEGPRYVLTIEDPSKNEKKSYPLEPGVDFKKLSAGGSA [r15_75_JUSTAS]")
"n"
>>> class_name("SATIEIPIKVNDRKFRISIERMPDGWIKIQIRDPNMPKDAVKDALREILGPGWKIDTDPETNTIYIPFKSAG [r14_370_TrROS]")
"y"
>>> class_name("SAGGMTIVSSGPSIEQALQEAAEAGGDATVIYKEPESNTIITLDVKYDPAPRTITVLSETETPVPPLLSAGG [r13_309_JUSTAS]")
"n"

* * *

Below, each entry is listed alongside its reported folding stability dG unfold.
experiment: folding stability dG unfold from chymotrypsin proteolysis; higher = more stable
Readout: folding stability dG unfold (kcal/mol)

>>> result("SAGGSAGGMYTKTYNVPPDWKVTATATAPGGATVTDSSAPNGNFTLTFPASLADATTFTVTVTPSAGGSAGG [r6_237_JUSTAS]")
0.641
>>> result("SAGGKVKIIVFNKKTGEKIEIDLSKLKPGDIIKLPNGYYKIIDKKTKKIKVIKAKSIEELKKAIKKLSSAGG [r13_962_TrROS_Hall]")
2.21
>>> result("SAGAMQTVTLPTPDGRTVTLRHPGISVSVDPEKRTVTISVPSLGKVYTLTFAPDGTVAELSEEPIPELESAG [r5_342_JUSTAS]")
3.23
>>> result("SAGMAVVKITLEYEDGRKEEFILFVESENPEEVLEEAEEALAELIEELDVPLKSATIEIYDIPPDEELSAGG [r19_335_TrMRF]")
3.39
>>> result("SYSTSTVTVPVAADEIDKAKEIAKELAEKLPPNSRVTFNMPAPDGSTFTVEVTVNPDGTITVTVSDSLPAVS [r1_350_JUSTAS]")
0.986
>>> result("SAGGSAGGMTFTIPPGKPVTIRVYNRNGELIEEVTVTGAGARIHVSEIPGTGELKITRIDEIPPSAGGSAGG [r6_523_TrMRF]")
2.91
>>> result("SAGPEIKIEPRSYDPKKGIFTYSAYVLDYKDGKKEREIEVGTWRYYGPDGTVEPISEEDILQKAKDLLSSAG [r5_909_TrMRF]")
0.543
>>> result("SAGMKIRILILGKGDPAQVEALAKELEAKLKEELGTEDVEVETLPASLTEEAAEERAKEEKVDIVVYESAGG [r19_89_JUSTAS]")
1.08
>>> result("KETVTLEFELEDGSKVRVEVDLETKEVKVEVEKPPAPPPPPVIVLPPGLTEEERERLIKELEKKGIKVVVLS [r1_242_TrROS_Hall]")
2.21
>>> result("SAGGSAGGKTKVKGTLIGPNGPPVEVEGEALLPDGREYDVHIDAVLLPDPEGEPTVVVKVEVKPSAGGSAGG [r6_334_TrMRF]")
0.168
>>> result("SAGGSAGGSAGGGMGSSVTITTEEDPTDETETTKKTKVTLNLPNPEEAEALKKKIEEKESAGGSAGGSAGGS [r10_1180_JUSTAS]")
-0.807
>>> result("SAGSVSLPPGAVLTEERKLPDGSLVRTTTTVSPVPELPVDRIETTTEFYAPGGEKIGTETSSSLRPPGESAG [r5_787_JUSTAS]")
-0.0977
>>> result("SAGGSAGGSAGYISIMIFFVLPDGYAIMVKYTFELPPNGNPKIENIEIHVMKLPPGEPIFSAGGSAGGSAGG [r11_517_TrROS]")
5.35
>>> result("SAGGSKIKIVEVKKNEDGTVTVKVEVEINGKKYTIEARFETLEDGKKVMTLRITNENGEEIEIVLPSAGGSA [r2_376_TrROS_Hall]")
5.22
